From: ChEMBL document CHEMBL3431459

tested.system: Carnitine O-palmitoyltransferase 1, muscle isoform (Homo sapiens)
Sequence (Q92523 whole entry, canonical isoform): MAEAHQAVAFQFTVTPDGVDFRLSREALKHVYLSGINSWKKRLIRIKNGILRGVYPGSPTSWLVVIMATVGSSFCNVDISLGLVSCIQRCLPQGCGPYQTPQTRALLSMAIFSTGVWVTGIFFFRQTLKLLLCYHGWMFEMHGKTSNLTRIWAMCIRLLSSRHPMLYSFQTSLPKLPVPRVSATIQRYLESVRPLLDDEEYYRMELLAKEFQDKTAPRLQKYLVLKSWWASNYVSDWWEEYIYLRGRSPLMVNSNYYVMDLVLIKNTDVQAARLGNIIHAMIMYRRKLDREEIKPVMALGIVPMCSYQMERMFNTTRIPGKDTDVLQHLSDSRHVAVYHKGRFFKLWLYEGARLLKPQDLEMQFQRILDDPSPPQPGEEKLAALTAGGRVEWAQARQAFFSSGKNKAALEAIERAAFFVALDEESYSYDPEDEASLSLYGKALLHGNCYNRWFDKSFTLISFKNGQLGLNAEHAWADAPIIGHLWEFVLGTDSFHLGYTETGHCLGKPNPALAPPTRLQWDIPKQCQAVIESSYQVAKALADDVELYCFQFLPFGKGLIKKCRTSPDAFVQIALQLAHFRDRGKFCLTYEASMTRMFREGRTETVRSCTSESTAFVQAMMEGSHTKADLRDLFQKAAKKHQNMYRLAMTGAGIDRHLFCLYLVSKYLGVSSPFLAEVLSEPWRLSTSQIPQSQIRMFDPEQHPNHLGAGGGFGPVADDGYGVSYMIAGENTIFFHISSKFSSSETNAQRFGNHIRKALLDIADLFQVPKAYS
procedure.summary: SUPPLEMENTARY: Inhibition of Carnitine palmitoyltransferase 1, muscle isoform
measurement.name: IC50

compound | tested.system | IC50
COc1ccc(Cl)cc1S(=O)(=O)N1CCOc2c(F)cc(C(=O)Nc3ccc(CC(=O)O)cc3)cc21 | Carnitine O-palmitoyltransferase 1, muscle isoform (Homo sapiens) | 0.75 µM
O=C(COc1ccccc1)N1CCCC[C@@H]1c1csc(-c2cccnc2)n1 | Carnitine O-palmitoyltransferase 1, muscle isoform (Homo sapiens) | 4.16 µM
COc1ccc(Cl)cc1S(=O)(=O)N1CC(C(=O)O)Oc2ccc(C(=O)Nc3ccccc3F)cc21 (stereo not drawn) | Carnitine O-palmitoyltransferase 1, muscle isoform (Homo sapiens) | > 100 µM

For each of the items listed, what is its IC50?
1. O=C(COc1ccccc1)N1CCCC[C@@H]1c1nc(-c2cccc(B(O)O)c2)no1
2. COc1ccc(Cl)cc1S(=O)(=O)N1CCOc2c(F)cc(C(=O)Nc3ccc(C(=O)O)cc3)cc21
3. CCC(=O)Nc1cccc(-c2n[nH]c([C@H]3CCCCN3C(=O)COc3ccccc3)n2)c1
4. O=C(COc1ccccc1)N1CCCC[C@@H]1c1noc(C2C[C@@H]3CC[C@H]2C3)n1 (stereo partly drawn)
5. Cn1ccc(-c2nc([C@H]3CCCCN3C(=O)COc3ccccc3)no2)n1
6. Nc1cccc(-c2nc([C@H]3CCCCN3C(=O)COc3ccccc3)no2)n1

1: 30.6 µM; 2: > 100 µM; 3: > 100 µM; 4: > 100 µM; 5: > 100 µM; 6: > 100 µM

For each of the items listed, what is its IC50?
1. Cc1cc(-c2noc([C@H]3CCCCN3C(=O)COc3ccccc3)n2)n(C)n1
2. O=C([C@H]1CCCCN1C(=O)COc1ccccc1)N1Cc2ccc(OC3CCOCC3)cc2C1
3. O=C1NCc2ccc(-c3n[nH]c([C@H]4CCCCN4C(=O)COc4ccccc4)n3)cc2N1
4. O=C(COc1ccccc1)N1CCCC[C@@H]1c1nc(-c2cccc([N+](=O)[O-])n2)no1

["> 100 µM", "> 100 µM", "> 100 µM", "> 100 µM"]

----------
procedure.summary: SUPPLEMENTARY: PAMPA permeability assay
Assay type: physicochemical
recorded.conditions: read-out: Permeability
So basically: Papp at 2 ×10⁻⁶ cm/s or higher? That is label 1. Lower than 2 ×10⁻⁶ cm/s? That is label 0.

Here are 3 molecules together with their reported answers.
query.smiles | assigned.label
COc1ccc(Cl)cc1S(=O)(=O)N1CCOc2ccc(C(=O)Nc3ccn(CC(=O)O)n3)cc21 | label 0
O=C(COc1ccccc1)N1CCCC[C@@H]1c1noc(-c2ccc3ncsc3c2)n1 | label 1
O=C(COc1ccccc1)N1CCCC[C@@H]1c1nc(-c2cc[nH]c(=O)c2)no1 | label 1

Record COc1ccc(Cl)cc1S(=O)(=O)N(C)c1cc(C(=O)Nc2ccn(CC(=O)O)n2)cc2c1OCO2 ; criterion: Papp no lower than 2 ×10⁻⁶ cm/s. Met? label 0

Next molecule: COc1ccc(Cl)cc1S(=O)(=O)N1COc2c(F)cc(C(=O)Nc3ccc(CC(=O)O)cc3)cc21 label 1
